- Assayed System: T1, human CLDN18.2 (human)
- T1 construct: also called huCLDN18.2; hCLDN18.2
- Experiment Notes: flow cytometry; % positive tumor cells divided by % positive healthy stomach cells
- Protocol: Two Balb/c mice were implanted subcutaneously with 1×10⁶ A549 cells expressing CLDN18.2 in 100 μl of 50% Matrigel and tumors growth was monitored over a few weeks until the tumor reached the desired size between 150-450 mm 3. Healthy stomach tissue and tumor tissue was collected for FC analysis. The collected tissues were cut into small pieces and digested with the Miltenyi tumor dissociation kit (MACS Miltenyi Biotec, Germany). […]
Measurement Label: Ratio tumor/stomach (Mouse 2)
Respond with the number and no other words.

Observe how each entry below is paired with its result.
Q: Provide only the value of recorded Ratio tumor/stomach (Mouse 2) for hCl1a (antibody, human IgG1, kappa, V domains shown, Humanized) VH: QVQLVQSGAEVKKPGASVKVSCKASGYTFTDYAMHWVRQAPGQRLEWMGWINTYTGKPTYAQKFQGRVTITRDTSASTAYMELSSLRSEDTAVYYCARAVFYGYTMDAWGQGTLVTVSS VL: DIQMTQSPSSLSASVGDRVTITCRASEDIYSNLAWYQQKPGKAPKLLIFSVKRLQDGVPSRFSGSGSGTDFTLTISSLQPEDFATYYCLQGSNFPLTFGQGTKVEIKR
Result: 60

Q: Provide only the value of recorded Ratio tumor/stomach (Mouse 2) for hCl1c (antibody, human IgG1, kappa, V domains shown, Humanized) VH: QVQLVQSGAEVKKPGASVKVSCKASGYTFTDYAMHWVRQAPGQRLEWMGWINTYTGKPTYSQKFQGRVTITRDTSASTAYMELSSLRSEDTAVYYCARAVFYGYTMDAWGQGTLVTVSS VL: DIQMTQSPSSLSASVGDRVTITCRTSEDIYSNLAWYQQKPGKAPKLLIFAIKRLQDGVPSRFSGSGSGTDFTLTISSLQPEDFATYYCLQGSKFPLTFGQGTKVEIKR
Result: 20

Next up:
Q: Provide only the value of recorded Ratio tumor/stomach (Mouse 2) for hCl1f (antibody, human IgG1, kappa, V domains shown, Humanized) VH: QVQLVQSGAEVKKPGASVKVSCKASGYTFTDYAMHWVRQAPGQRLEWMGWINAYTGKPTYAQKFQGRVTITRDTSASTAYMELSSLRSEDTAVYYCARAVFYGYTMDAWGQGTLVTVSS VL: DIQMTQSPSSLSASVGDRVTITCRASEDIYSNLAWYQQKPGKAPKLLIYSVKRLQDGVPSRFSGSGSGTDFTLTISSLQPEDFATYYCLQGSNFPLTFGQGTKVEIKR
Result: 140
